Biological target: T1, His-tagged CEACAM1 (human, UniProt P13688 35-428)
T1 construct: 45 kDa SPR analyte; also called CEACAM1-HIS; CEACAM1 analyte
T1 sequence: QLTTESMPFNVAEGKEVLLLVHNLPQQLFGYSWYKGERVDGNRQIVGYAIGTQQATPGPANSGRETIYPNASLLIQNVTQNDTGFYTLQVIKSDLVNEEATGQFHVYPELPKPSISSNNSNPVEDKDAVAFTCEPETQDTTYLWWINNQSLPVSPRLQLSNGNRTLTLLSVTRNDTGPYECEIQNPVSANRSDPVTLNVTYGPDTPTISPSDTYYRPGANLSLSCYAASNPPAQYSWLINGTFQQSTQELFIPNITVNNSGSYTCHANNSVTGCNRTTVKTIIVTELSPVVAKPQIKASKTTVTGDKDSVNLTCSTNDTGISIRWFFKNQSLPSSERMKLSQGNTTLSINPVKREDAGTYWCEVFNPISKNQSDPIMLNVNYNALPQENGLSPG
Test: SPR single-cycle, IgG captured
Reported property: relative KD to VH0/Vκ0
// return a plain number; no unit text

Binder	relative KD to VH0/Vκ0
VH2/Vκ8 (antibody, IgG4, V domains shown, IgG4 (S241P), kappa) VH: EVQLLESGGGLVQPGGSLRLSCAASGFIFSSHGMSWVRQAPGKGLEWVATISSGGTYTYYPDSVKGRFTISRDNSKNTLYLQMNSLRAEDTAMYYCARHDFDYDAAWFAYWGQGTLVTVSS VL: EIVLTQSPATLSLSPGERATLSCRANSSVSYMYWYQQKPGQAPRPWIYLTSNRATGVPARFSGSGSGTDYTLTISSLEPEDFAVYYCQQWSSNPPTFGQGTKLEIK	3

Could you now look at the following binder, please?
Name the recorded relative KD to VH0/Vκ0 for chimeric antibody VH0/Vκ0 (antibody, IgG4, V domains shown, IgG4 (S241P), kappa; also called VH0/Vκ0 (control); Chimeric VH0/Vκ0) VH: EVQLVESGGDLVKPGGSLKLACAASGFIFSSHGMSWVRQTPDKRLEWVATISSGGTYTYYPDSVKGRFTISRDNDKNTLYLQMNSLKSEDTAMYYCARHDFDYDAAWFAYWGQGTLVTVSS VL: QIVLTQSPALMSASPGVKVTMTCSANSSVSYMYWYRQKPRSSPKPWIYLTSNLASGVPARFSGSGSGTSYSLTISSMEAEDAATYYCQQWSSNPPTFGSGTKLEIK .
1

Attribution: patent US20250074980A1
